Values from PubChem BioAssay

method description: viability of PTEN-null HCT116 cells – cell-based, HCT116 clonal line, CellTiter-Glo, pilot screen (AID 824);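 further: 0% = 20 µM Hyamine control and 100% = vehicle cell control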
run parameters: HCT116 PTEN-deleted viability, 60 h, at 10 µM, active compounds read low
Results filed as inconclusive are left out. Calls of active or inactive are those of the source.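 How the source made its calls: active means viability at or below 27.92% in each of two runs, the all-compound median minus 4 SD; inconclusive means no clear call, values can overlap the other calls; inactive means the rest.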
For each entry below, report its viability value.

viability lookup needed for Cc1ccc(C(=O)N2CCN(c3ccccc3)CC2)cc1C , thanks. 97.7% (inactive)

viability lookup needed for COc1ccccc1NC1C=CS(=O)(=O)C1 (configuration not stated) , thanks. 94.4% (inactive)

viability lookup needed for CC(=O)c1c(C)cc(C)c(CSc2nc(C)cc(=O)[nH]2)c1C , thanks. 74.2% (inactive)

viability lookup needed for CNC(=O)c1ccsc1NC(=O)CN1C(=O)CCC1=O , thanks. 98.9% (inactive)

viability lookup needed for O=C(Cn1nc(Cc2cccnc2)c2ccccc2c1=O)NCCCN1CCCC1=O , thanks. 97.3% (inactive)

viability lookup needed for c1ccc(-c2cn3cccnc3n2)cc1 , thanks. 100% (inactive)

viability lookup needed for CC(CCc1ccco1)NC(=O)Cn1ncc2c1-c1ccccc1OC2 (configuration not stated) , thanks. 91.3% (inactive)

viability lookup needed for COCCn1cc(C(=O)c2ccccc2OCC(=O)Nc2cc(C)on2)cc(C#N)c1=O , thanks. 99.5% (inactive)

viability lookup needed for Cc1cc(NC(=O)COc2cccc(C)c2C)no1 , thanks. 105% (inactive)

viability lookup needed for COC(=O)C1=C(N)OC2=C(C(=O)CCC2)C1c1cccs1 (configuration not stated) , thanks. 92.9% (inactive)

viability lookup needed for Cc1ccc2oc(=O)c3cnn(CC(=O)Nc4ccccc4N4CCN(C)CC4)c3c2c1 , thanks. 6.03% (active)

viability lookup needed for CCCN1CCC(N(C)CCc2ccc(OC)c(OC)c2)CC1 , thanks. 94.5% (inactive)

----------
method description: yeast transport mutant growth inhibition pilot in 384-well plates, post-Golgi transport modulator project (AID 636)
run parameters: absorbance 615 nm, about 18 h, active compounds read high
For each entry below, report its inhibition value.
Your answer should be a plain number; it is taken to be in %.

inhibition lookup needed for O=C(CN1CCN(Cc2ccccc2F)C1=O)NCc1cccnc1 , thanks. -3.87

inhibition lookup needed for COc1cccc2cc(C(=O)Nc3cccnc3N3CCOCC3)c(=O)oc12 , thanks. -4.03

inhibition lookup needed for Cc1cc(C)c2c(=O)n(CC(=O)NCCCN3CCOCC3)sc2n1 , thanks. -4.53

inhibition lookup needed for O=C1CC(c2ccco2)CC(O)=C1C=NCCN1CCNCC1 (stereo unspecified) , thanks. 0.13

inhibition lookup needed for CCn1c(C(=O)N2CCC(C(=O)N3CCN(c4ccccn4)CC3)CC2)cc2sccc21 , thanks. -2.8

inhibition lookup needed for Cc1ccc2nc(NC(=O)Cn3cc4c(n3)CCCCC4)sc2c1 , thanks. 0.51

inhibition lookup needed for COc1ccccc1N1CCN(c2cc(=O)n(Cc3ccc(F)cc3)c(=O)[nH]2)CC1 , thanks. 0

inhibition lookup needed for CC(=NCC1CCNCC1)C1=C(O)CC(C)(C)CC1=O , thanks. -4.73

inhibition lookup needed for Cc1ccc(N(C)C(=O)N2CCN(c3ccccn3)CC2)cc1 , thanks. 2.27

inhibition lookup needed for O=C(CSc1nnnn1-c1ccccc1Cl)Nc1ccc2c(c1)OCCO2 , thanks. -0.4

inhibition lookup needed for CCC(=O)c1cc(F)c(N2CCN(C(=O)c3ccco3)CC2)cc1C , thanks. -0.8

----------
For each entry below, report its RAM network inhibition value.
method description: RAM signaling pathway blockade in yeast – S. cerevisiae, Pdr1DBD-CYC8 efflux-inhibited sensitized strain, primary screen (AID 1298);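 further: 0% = DMSO untreated cells without growth and 100% = 10 µM 1-NA-PP1 full growth; higher means more yeast growth rescued from 5-FOA killing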
run parameters: S. cerevisiae cbk1-as DSE1-URA3 strain, 5-FOA growth OD615, 2 d; at 50 µM; active compounds read high
The source made the active and inactive calls.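 Rule for the calls: active = RAM network inhibition above 8.4% in each of two replicates, 3 SD over the compound average; inconclusive = above 8.4% inhibition in only one replicate; inactive = 8.4% inhibition or less in each replicate.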

RAM network inhibition lookup needed for CCNc1nnc(-c2ccccc2OC)s1 , thanks. 5.21% (inactive)

RAM network inhibition lookup needed for O=C(CSc1oc(-c2ccco2)nc1S(=O)(=O)c1ccc(F)cc1)NCC1CCCO1 (centres undefined) , thanks. 3.81% (inactive)

RAM network inhibition lookup needed for CCCCn1c2c(c3ccccc31)CCc1nonc1-2 , thanks. 2.83% (inactive)

RAM network inhibition lookup needed for COc1cc(Cl)c(S(=O)(=O)n2cnc(C)c2)cc1Cl , thanks. 2.3% (inactive)

RAM network inhibition lookup needed for C(=N\n1cnnc1)/c1cccc(OCCOc2ccccc2)c1 , thanks. 0.17% (inactive)

RAM network inhibition lookup needed for CCn1cc(S(=O)(=O)CC(=O)Nc2ccc3c(c2)OCCO3)c2ccccc21 , thanks. 9.35% (inactive)

RAM network inhibition lookup needed for CC1CCN(C(=O)CSc2nnc(-c3ccco3)o2)CC1 , thanks. 1.64% (inactive)

RAM network inhibition lookup needed for COc1ccc(S(=O)(=O)N2CCCC2C(=O)Nc2ccc(O)cc2)cc1 (centres undefined) , thanks. 4.8% (inactive)

RAM network inhibition lookup needed for COc1ccccc1CNC(=O)C1CCCN(S(=O)(=O)c2cccc3cccnc23)C1 (centres undefined) , thanks. 6.37% (inactive)

RAM network inhibition lookup needed for COc1ccc(CCc2nc(-c3ccc(-n4cccc4)cc3)no2)cc1 , thanks. 6.54% (inactive)

RAM network inhibition lookup needed for CC(C)c1nnc(NC(=O)Cc2cccs2)s1 , thanks. 0.83% (inactive)

RAM network inhibition lookup needed for CCOC(=O)C1CCCN(C(=O)c2cn(C)c(=O)c3cc(OC)c(OC)cc23)C1 (centres undefined) , thanks. 1.13% (inactive)

RAM network inhibition lookup needed for O=C(c1ccco1)N1CCN(C(=O)C2CC(c3ccc(F)cc3)=NO2)CC1 (centres undefined) , thanks. 5.01% (inactive)

RAM network inhibition lookup needed for CC(=O)Nc1ccc(S(=O)(=O)Nc2nc3ccccc3nc2Sc2nncn2C)cc1 , thanks. 2.12% (inactive)

RAM network inhibition lookup needed for Cn1c(/C=N/n2cnnc2)nc2ccccc21 , thanks. 5.84% (inactive)

RAM network inhibition lookup needed for O=[n+]1c2c(n([O-])c3c1CCCC3)CCCCC2 , thanks. -0.51% (inactive)

RAM network inhibition lookup needed for O=C1CCCC2=C1C(c1cccc(Br)c1)n1nc(-c3ccco3)nc1N2 (centres undefined) , thanks. 0.99% (inactive)

RAM network inhibition lookup needed for Cc1ccc(S(=O)(=O)NCc2nc3ccccc3[nH]2)cc1 , thanks. 1.58% (inactive)

RAM network inhibition lookup needed for O=C(c1cnn2c(C(F)(F)F)cc(-c3ccccc3)nc12)N1CCOCC1 , thanks. -1.1% (inactive)

RAM network inhibition lookup needed for COc1ccc(N2CCN(C(=O)C(C)(C)Oc3ccc(Cl)cc3)CC2)cc1 , thanks. 9.33% (inactive)

RAM network inhibition lookup needed for CCCSCCCNC(=O)Cn1cc2c(n1)CCC(C)C2 (centres undefined) , thanks. 1.33% (inactive)

RAM network inhibition lookup needed for O=C1CCCc2c1cc(C(=O)NCCCN1CCOCC1)c(=O)n2-c1ccc(Cl)cc1 , thanks. 2% (inactive)

RAM network inhibition lookup needed for CCn1cc(C(=O)NCCCOC)c(=O)c2cc(S(=O)(=O)N(C)C)ccc21 , thanks. 0.52% (inactive)

RAM network inhibition lookup needed for Cn1ccnc1C(O)c1ccco1 (centres undefined) , thanks. 3.14% (inactive)

----------
method description: HUVEC growth inhibition – cell-based, human, primary screen (AID 575);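 further: 100% = median of untreated cell wells with 0.1% DMSO on each plate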
run parameters: HUVEC proliferation, CellTiter-Glo luminescence, 72 h; at 10 µM; active compounds read low
For each entry below, report its viability value.
Your answer should be a plain number; it is taken to be in %.

viability lookup needed for CCOC(=O)CN1CC23C=CC(O2)C(C(=O)Nc2ccc(OCC)cc2)C3C1=O (stereo unspecified) , thanks. 102

viability lookup needed for O=S(=O)(NCC(O)COCc1ccco1)c1cccs1 (stereo unspecified) , thanks. 114

viability lookup needed for Cc1noc(/C=C/N(C)C)c1S(=O)(=O)N1CCCC(C(=O)NCCC2=CCCCC2)C1 (stereo unspecified) , thanks. 79.7

viability lookup needed for COc1ccc(NC(=O)CSc2nc3c(c(=O)n2-c2ccc(F)cc2)SCC3)cc1 , thanks. 81.3

viability lookup needed for Cc1cc(C)nc(SCc2csc(N)n2)n1 , thanks. 89.6

viability lookup needed for CC1=C(C(=O)OC2CCCC2)C(c2ccc(C)o2)C2=C(CC(c3cccs3)CC2=O)N1 (stereo unspecified) , thanks. 75.1

viability lookup needed for CCOC(=O)c1sc2nc(NC(=O)C3CCCCC3)sc2c1C , thanks. 58.7

viability lookup needed for Cc1noc(C(=O)Nc2ccc3c(c2)OCO3)c1Cl , thanks. 51.4

viability lookup needed for CCN(CC)C1CCCCC1NS(=O)(=O)c1ccc(Cl)cc1 (stereo unspecified) , thanks. 90.8

viability lookup needed for CC(=NCC1CCNCC1)C1=C(O)CC(C)(C)CC1=O , thanks. 107

viability lookup needed for O=C1CCCC2=C1C(c1cccc(Br)c1)n1nc(-c3ccco3)nc1N2 (stereo unspecified) , thanks. 80.6

viability lookup needed for COc1ccccc1OCC(=O)N1CCN(c2ccccc2OC)CC1 , thanks. 111

viability lookup needed for CC(=O)NC(CCS(C)(=O)=O)C(=O)Nc1cccc(C)c1 (stereo unspecified) , thanks. 89.3

viability lookup needed for CCOC(=O)N1CCC(NC(=O)c2cnn3ccccc23)CC1 , thanks. 86

viability lookup needed for CC1CCN(C(=O)Cn2cc3c(n2)CCCC3)CC1 , thanks. 97.1

viability lookup needed for Nc1nc2n(n1)C(c1cccc(Br)c1)CC(c1ccccc1)N2 (stereo unspecified) , thanks. 82

viability lookup needed for CC1(C)Cc2ccccc2C(N)=C1C#N , thanks. 87.5

viability lookup needed for COc1ccc(S(=O)(=O)N2Cc3ccccc3CC2C(=O)Nc2ccc(O)cc2)cc1OC (stereo unspecified) , thanks. 76.3

viability lookup needed for Cc1cc(NC(=O)CS(=O)(=O)c2cn(Cc3cccc(F)c3)c3ccccc23)no1 , thanks. 69.7

viability lookup needed for O=C(c1ccc(Cl)s1)N1CCN(c2nc3ccccc3s2)CC1 , thanks. 69.4

viability lookup needed for Cc1cccc(NC(=O)c2ccccc2O)c1C , thanks. 59.2

viability lookup needed for N#Cc1nc(-c2ccc(Cl)cc2)oc1NCCc1ccccn1 , thanks. 102

viability lookup needed for CC(C)c1nnc(NC(=O)c2ccc(N3C(=O)CCC3=O)cc2)s1 , thanks. 100

viability lookup needed for Cc1ccc2c(c1)-c1c(cnn1CC(=O)NC(C)CCc1ccco1)CO2 (stereo unspecified) , thanks. 91.5

viability lookup needed for CCn1cc(C(=O)NCCCOC)c(=O)c2cc(S(=O)(=O)N(C)C)ccc21 , thanks. 89.3

viability lookup needed for Cn1ccnc1SCC(=O)Nc1ccc2ccccc2c1 , thanks. 91.5

viability lookup needed for Cc1nnc(NC(=O)CSc2cn(CCNC(=O)c3ccccc3)c3ccccc23)s1 , thanks. 75.5

viability lookup needed for Cc1cc(C)nc(NC2=NCC(=O)N2c2ccccc2Br)n1 , thanks. 101

viability lookup needed for CCOC(=O)c1[nH]c(C)c(C(=O)Nc2ccc(C)cc2C)c1C , thanks. 54.8

viability lookup needed for CCCCOC(=O)Cn1c(=O)oc2ccc(C)cc21 , thanks. 86

viability lookup needed for CC1(C)CC(=O)N(CC(=O)NCc2ccccc2)c2ccccc2S1(=O)=O , thanks. 106

viability lookup needed for CCCC(=O)C1=C(N(C)c2ccccc2)CC(C)(C)C(C(=O)OC)C1=O (stereo unspecified) , thanks. 97.9

viability lookup needed for O=C(CC1(O)C(=O)Nc2ccccc21)c1ccc2c(c1)OCO2 (stereo unspecified) , thanks. 87.5

viability lookup needed for CC(=O)NCCc1nc2ccccc2[nH]1 , thanks. 91.9

viability lookup needed for COc1ccc(N2CCN(c3oc(COc4ccccc4Cl)nc3C#N)CC2)cc1 , thanks. 104

viability lookup needed for Cc1nnc(SCC(=O)Nc2c(Cl)cccc2Cl)[nH]c1=O , thanks. 99.1

viability lookup needed for Cc1ccc(C(C(=O)NC2CCCCC2)N2CCOCC2)cc1 (stereo unspecified) , thanks. 106

viability lookup needed for CC1NC2(C(=O)N(Cc3ccccc3)c3ccccc32)C2C(=O)N(c3ccccc3)C(=O)C12 (stereo unspecified) , thanks. 95.5

viability lookup needed for CCCCN(CC)CCNC(=O)c1cc2c(C)nc3ccccc3c2o1 , thanks. 63.6

viability lookup needed for CCCn1cc(SCC(N)=O)c2ccccc21 , thanks. 90.6

viability lookup needed for COc1cc(NC(=O)C2CCCN2S(=O)(=O)c2cccc3cccnc23)cc(OC)c1OC (stereo unspecified) , thanks. 87.6

viability lookup needed for COCCOC(=O)c1[nH]c2c(c1C)C(=O)CC(c1ccco1)C2 (stereo unspecified) , thanks. 57

viability lookup needed for O=C(c1ccc(CSCc2ccccc2F)o1)N1CCN(c2ccc(N3CCOCC3)nn2)CC1 , thanks. 54.7

viability lookup needed for COc1ccccc1C(=O)NCCc1nc2ccccc2n1C , thanks. 119

viability lookup needed for CC1Cc2nc(SCC(=O)Nc3nccs3)n(C)c(=O)c2S1 (stereo unspecified) , thanks. 72.7

viability lookup needed for Cc1ccc(-n2c3c(cc(C(=O)O)c2=O)C(=O)CC(C)(C)C3)cc1 , thanks. 111
